// MIC collected for Staphylococus epidermidis TB-302
Give your result in µg/mL as a bare value.

Solved cases below.
Problem: State, in one line, measured MIC of NC[C@H]1O[C@H](O[C@H]2[C@H](O)[C@@H](O[C@H]3O[C@H](CO)[C@@H](O)[C@H](N)[C@H]3O)[C@H](NCC3(O)CCNC3)C[C@@H]2N)[C@H](O)[C@@H](O)[C@@H]1O (some centres unmarked)
Result: 1.56

Problem: State, in one line, measured MIC of NC[C@H]1O[C@H](O[C@H]2[C@H](O)[C@@H](O[C@H]3O[C@H](CO)[C@@H](O)[C@H](N)[C@H]3O)[C@H](NCC3(O)CCNC3)C[C@@H]2N)[C@H](N)C[C@@H]1O (some centres unmarked)
Result: 1.56

Problem: State, in one line, measured MIC of `NC[C@H]1O[C@H](O[C@H]2[C@H](O)[C@@H](O[C@H]3O[C@H](CO)[C@@H](O)[C@H](N)[C@H]3O)[C@H](NCC3(O)CNC3)C[C@@H]2N)[C@H](N)C[C@@H]1O`
Result: 3.13

Problem: State, in one line, measured MIC of `NC[C@H]1O[C@H](O[C@H]2[C@H](O)[C@@H](O[C@H]3O[C@H](CO)[C@@H](O)[C@H](N)[C@H]3O)[C@H](NCC3(O)CNC3)C[C@@H]2N)[C@H](O)[C@@H](O)[C@@H]1O`
Result: 3.13

Now turn to the next compound.
Problem: State, in one line, measured MIC of NC[C@H]1O[C@H](O[C@H]2[C@H](O)[C@@H](O[C@H]3O[C@H](CO)[C@@H](O)[C@H](N)[C@H]3O)[C@H](N)C[C@@H]2N)[C@H](N)C[C@@H]1O [Test compound (5), tobramycin, reference compound]
Result: 3.13
